Origin of measurements: patent US10919859B2

Kindly state pEC50 for each of the entries shown.
- Measurement target: human GPR40 receptor (Homo sapiens (Human))
- Sequence (O14842 whole entry): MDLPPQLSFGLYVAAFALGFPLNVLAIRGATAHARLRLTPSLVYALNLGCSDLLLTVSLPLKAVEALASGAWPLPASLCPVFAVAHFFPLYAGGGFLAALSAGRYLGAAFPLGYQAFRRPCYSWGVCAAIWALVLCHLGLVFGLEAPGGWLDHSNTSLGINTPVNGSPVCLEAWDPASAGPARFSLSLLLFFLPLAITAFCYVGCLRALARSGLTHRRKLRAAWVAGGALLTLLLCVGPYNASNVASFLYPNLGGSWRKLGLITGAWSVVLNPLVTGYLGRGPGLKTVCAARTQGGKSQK
- Procedure text: IP1 accumulation measurements using the IPOne assay system
- Condition description: 1321N1 cells stably expressing human GPR40, 1 h at 37° C.
// pEC50: -log10(molar conc.)

If you can, please state the reported pEC50 value of Cc1cnc(-c2cc(C)c(-c3ccc(F)c(CNc4ccc([C@H]5C[C@@H]5C(=O)O)nc4)c3)c(C)c2)nc1 . 8.22

Param item: Cc1cc(N)ccc1-c1cc(CNc2ccc([C@H]3C[C@@H]3C(=O)O)nc2)c(F)cc1F 6.90

Param item: Cc1cc(C(=O)O)cc(C)c1-c1ccc(F)c(CNc2ccc([C@H]3C[C@@H]3C(=O)O)nc2)c1 5.44

Param item: Cc1cc(OCC2CCOCC2)cc(C)c1-c1ccc(F)c(CNc2ccc([C@H]3C[C@@H]3C(=O)O)nc2)c1 7.74

Param item: Cc1cc(OC2CCOCC2)cc(C)c1-c1ccc(F)c(CNc2ccc([C@H]3C[C@@H]3C(=O)O)nc2)c1 7.46

Param item: Cc1cc(O[C@@H]2CCOC2)cc(C)c1-c1ccc(F)c(CNc2ccc([C@H]3C[C@@H]3C(=O)O)nc2)c1 7.36

Param item: Cc1cc(OCc2ccccc2)cc(C)c1-c1ccc(F)c(CNc2ccc([C@H]3C[C@@H]3C(=O)O)nc2)c1 7.36
